Target: GLP-1 Receptor (Homo sapiens, UniProt P43220)
Sequence (P43220 24-463, species assumed): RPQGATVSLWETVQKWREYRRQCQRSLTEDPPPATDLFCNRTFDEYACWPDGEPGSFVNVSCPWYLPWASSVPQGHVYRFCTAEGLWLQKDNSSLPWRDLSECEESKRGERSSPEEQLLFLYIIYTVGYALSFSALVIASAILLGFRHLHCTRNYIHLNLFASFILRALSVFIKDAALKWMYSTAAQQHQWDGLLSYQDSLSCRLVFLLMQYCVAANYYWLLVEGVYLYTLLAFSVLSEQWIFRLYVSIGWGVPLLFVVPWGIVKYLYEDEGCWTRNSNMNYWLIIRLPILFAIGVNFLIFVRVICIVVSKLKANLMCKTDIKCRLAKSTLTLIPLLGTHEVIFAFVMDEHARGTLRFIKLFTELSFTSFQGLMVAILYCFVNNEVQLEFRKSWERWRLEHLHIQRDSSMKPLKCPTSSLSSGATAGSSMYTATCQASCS
Assay: GLP-1R agonist cAMP stimulation assay (HEK293/GLP1R/CRE-LUC cells, Cisbio cAMP dynamic 2 kit)
Type: cell-based
Settings: Table 3, HEK293/GLP1R/CRE-LUC cells, 30 min
Under this convention, condition met denotes EC50 strictly below 0.06 nM and condition not met denotes EC50 at or above 0.06 nM.

[[record]]
molecule = "CCS(=O)(=NC)c1ccc(-n2ccn(-c3c4c(nn3-c3cc(C)c(F)c(C)c3)CCN(C(=O)c3cc5cc(C6CCOCC6)ccc5n3C[C@@H]3CCO3)[C@H]4C)c2=O)cc1 (single isomer, unassigned) [Compound 162]"
label_value = "condition not met"

[[record]]
molecule = "Cc1cc(-n2nc3c(c2-n2ccn(-c4ccc(S(C)(=N)=O)cc4)c2=O)[C@H](C)N(C(=O)c2cn4cc(C5CCOCC5)ccc4c2C2(c4noc(=O)[nH]4)CC2)CC3)cc(C)c1F (stereo partly drawn) [Compound 109]"
label_value = "condition not met"

[[record]]
molecule = "CN=S1(=O)CCC(Oc2ccc(-n3ccn(-c4c5c(nn4-c4cc(C)c(F)c(C)c4)CCN(C(=O)c4cc6cc(C7CCOCC7)ccc6n4[C@@]4(c6noc(=O)[nH]6)C[C@@H]4C)[C@H]5C)c3=O)cc2C(F)F)CC1 (single isomer, unassigned) [Compound 235]"
label_value = "condition met"

[[record]]
molecule = "CN=S(=O)(c1ccc(-n2ccn(-c3c4c(nn3-c3cc(C)c(F)c(C)c3)CCN(C(=O)c3cc5cc([C@H]6CCOC(C)(C)C6)ccc5n3[C@@]3(c5noc(=O)[nH]5)C[C@@H]3C)[C@H]4C)c2=O)c(Cl)c1)C1CC1 (single isomer, unassigned) [Compound 205]"
label_value = "condition not met"

[[record]]
molecule = "Cc1cc(-n2nc3c(c2-n2ccn(-c4ccc(S(=N)(=O)C5CC5)cc4F)c2=O)[C@H](C)N(C(=O)c2cc4cc([C@H]5CCOC(C)(C)C5)ccc4n2[C@@]2(c4noc(=O)[nH]4)C[C@@H]2C)CC3)cc(C)c1F (single isomer, unassigned) [Compound 181]"
label_value = "condition met"

[[record]]
molecule = "CC1=Cc2cc(-n3ccn(-c4c5c(nn4-c4cc(C)c(F)c(C)c4)CCN(C(=O)c4cc6cc([C@H]7CCOC(C)(C)C7)ccc6n4[C@@]4(c6noc(=O)[nH]6)C[C@@H]4C)[C@H]5C)c3=O)ccc2S(C)(=O)=N1 (single isomer, unassigned) [Compound 207]"
label_value = "condition met"

